Tested on: L1210 leukemia ip in BDF1 mice, survival T/C
assayOverview: NCI In Vivo Anticancer Drug Screen. Data for tumor model L1210 Leukemia (intraperitoneal) in B6D2F1 (BDF1) mice
conditionSummary: endpoint: mean survival time; dose: 100.0 mg/kg/injection; schedule: Q01DX001 (ip); vehicle: saline; higher = longer survival
Inconclusive results and toxic doses are left out.
T/C values for the compounds below.
recordedEndpoint: T/C

> print(dat)
                                    compound  recordedendpoint            result
 1                      CC(=O)c1ccccc1OB(F)F               T/C   98 % of control
 2                          CC(C)N(N=O)C(C)C               T/C  104 % of control
 3          C1=CC2CCC1NO2 (stereo not drawn)               T/C  105 % of control
 4                       Cc1cc(=O)cc(C)[nH]1               T/C   90 % of control
 5  N/C(=N\O)c1c(Br)n(C2OC(CO)C(O)C2O)c2ncnc(N)c12 (stereo not drawn)               T/C   98 % of control
 6              CN(C)N=Nc1ccccc1[N+](=O)[O-]               T/C  101 % of control
 7                   CNC1(c2ccc(F)cc2)CCCCC1               T/C   98 % of control
 8      COc1ccc(/C=C2\N=C(c3ccccc3)OC2=O)cc1               T/C   94 % of control
 9  COc1cc2c(cc1OC)-c1c(=O)c3cc(OC)c(OC)cc3n([O-])[n+]1CC2               T/C   93 % of control
10  CC(=O)OCC1OC(n2ccc(=O)[nH]c2=O)C(OC(C)=O)C1OC(C)=O (stereo not drawn)               T/C  100 % of control
11  CCC(C(=O)O)N1C(=O)c2ccccc2C1=O (stereo not drawn)               T/C  102 % of control
12  CC(C)C1(c2ccsc2)NC(=O)NC1=O (stereo not drawn)               T/C   94 % of control
13                    NC(=O)CC1=NCCc2ccccc21               T/C  108 % of control
